For each entry below, report its switch fluorescence ratio value.
system: ATP; assay: switch fluorescence ratio, 500 uM ATP over buffer (Cy3 cluster intensity, sum of 5 cycles each) (fold (ratio)); higher = stronger signal-on switching upon ATP binding; sequences stand for … in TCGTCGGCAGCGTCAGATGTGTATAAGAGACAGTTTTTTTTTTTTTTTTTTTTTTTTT…TC; conditions: aptamer strand: ATP DNA aptamer (quencher-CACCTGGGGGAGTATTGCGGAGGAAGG + anchor), 100 nM annealed; ATP concentration: 500 uM;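 further: ATP exposure 15 min at 22 °C before imaging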
Respond using a number only.

Answer with the recorded switch fluorescence ratio for the sequence listed here: `AAGCTTCGGG`
1.06

Answer with the recorded switch fluorescence ratio for the sequence listed here: `GCTAGGCCTT`
0.996

Answer with the recorded switch fluorescence ratio for the sequence listed here: `CAGGGCGTGG`
0.948

Answer with the recorded switch fluorescence ratio for the sequence listed here: `CTTCTCTAGT`
0.974

Answer with the recorded switch fluorescence ratio for the sequence listed here: `GACTTTGTCA`
1.04

Answer with the recorded switch fluorescence ratio for the sequence listed here: `AGAGGGGTTC`
1.01

Answer with the recorded switch fluorescence ratio for the sequence listed here: `ATACCAGGCG`
1.24

Answer with the recorded switch fluorescence ratio for the sequence listed here: `AAAAGTTATT`
0.986

Answer with the recorded switch fluorescence ratio for the sequence listed here: `CGCATGTACG`
1.14

Answer with the recorded switch fluorescence ratio for the sequence listed here: `ATACGAGCAG`
1.07

Answer with the recorded switch fluorescence ratio for the sequence listed here: `TGGGGGTCTG`
1.01

Answer with the recorded switch fluorescence ratio for the sequence listed here: `CGGTAGGGGG`
1.02

Answer with the recorded switch fluorescence ratio for the sequence listed here: `AAATTCCGGG`
1.02

Answer with the recorded switch fluorescence ratio for the sequence listed here: `CCATGACTCT`
0.983

Answer with the recorded switch fluorescence ratio for the sequence listed here: `TTGTGTTTGG`
0.992

Answer with the recorded switch fluorescence ratio for the sequence listed here: `CGTGGTTAAG`
1.01

Answer with the recorded switch fluorescence ratio for the sequence listed here: `GACTGGGGGG`
0.997

Answer with the recorded switch fluorescence ratio for the sequence listed here: `AACTCGACCC`
1.05

Answer with the recorded switch fluorescence ratio for the sequence listed here: `TACCTCATGG`
1.01

Answer with the recorded switch fluorescence ratio for the sequence listed here: `GTGGTTGTAT`
0.974
